Tested on: A498
Experiment Summary: NCI tumour cell line growth inhibition, 48 h
The source made the active and inactive calls. Cut-off read from the data, not from the text of the source: active = GI50 up to about 1.1 µM and inactive = higher.
Outcome codes: active, inactive

Compound: CCSc1c2ccccc2nc2c(OC)ccc(OC)c12
Assigned Label: inactive

Compound: Cc1cccc2c1C/C(=C\c1cccc(C)c1C(=O)O)C2=O
Assigned Label: inactive

Compound: COC(=O)/N=[N+](\[O-])C(c1ccc(Cl)cc1)c1ccc(Cl)cc1
Assigned Label: inactive

Compound: CC(C(=O)c1ccccc1)C1(O)C(=O)Nc2ccc(Cl)cc21 (stereo not drawn)
Assigned Label: inactive

Compound: C=CC(c1ccccc1)[C@@]1(OC(C)=O)C(=O)C(=O)OC1C1COC(C)(C)O1 (stereo partly drawn)
Assigned Label: inactive

Compound: C=CCN1C(=O)/C(=C/c2ccco2)N=C1SC/C=C/C
Assigned Label: inactive

Compound: Nc1nc(=O)c2c([nH]1)NCC(CCNc1ccc(C(=O)O)cc1)N2 (stereo not drawn)
Assigned Label: inactive

Compound: O=C1OC(C2OC(=O)c3cc(O)c(O)c(O)c3-c3c(O)c(O)c4oc(=O)c5c(c(O)c(O)c6oc(=O)c3c4c65)-c3c(cc(O)c(O)c3O)C(=O)OCC2O)C2OC(=O)c3c(c(O)c(O)c(O)c3[C@H]2O)-c2c1cc(O)c(O)c2O (stereo partly drawn)
Assigned Label: inactive

Compound: Cc1cc2cc3cc(C)c(N)cc3nc2cc1N
Assigned Label: active

Compound: CC(=O)NNc1nc(C)c(C(=O)/C=C/c2ccc(Cl)cc2)s1
Assigned Label: inactive

Compound: CC(C)Oc1c(-c2ccc(F)cc2)c(O)c2c3c1oc(=O)n3C=CC2C (stereo not drawn)
Assigned Label: inactive

Compound: COc1cc2c(cc1OCCCC(=O)Nc1cc(C(=O)Nc3cc(C(=O)NCCCN(C)C)n(C)n3)n(C)n1)N=CC1CCCN1C2=O (stereo not drawn)
Assigned Label: active

Compound: CN(C)C1(C#N)CCC2(CC1)OCCO2
Assigned Label: inactive

Compound: CCC(c1ccc(OC)cc1)C1NC(=S)NC1=O (stereo not drawn)
Assigned Label: inactive

Compound: COc1ccc2oc(=N)c(C(=O)NCc3ccccc3)cc2c1
Assigned Label: inactive

Compound: c1c[nH]c(C23C4C5C6C4C2C6C53)n1 (stereo not drawn)
Assigned Label: inactive

Compound: CNC(=O)CCCNC(=O)CCCCC(=O)N(C)C
Assigned Label: inactive

Compound: CC(C)CNCCc1ccccn1
Assigned Label: inactive

Compound: COc1ccc2c(c1)[n+]([O-])c(-c1ccc([N+](=O)[O-])cc1)c(N)[n+]2[O-]
Assigned Label: inactive

Compound: C[C@@H](NC(=O)OC1C=CC2(CC1)C(=O)N(C)c1ccccc12)c1cccc2ccccc12 (stereo partly drawn)
Assigned Label: inactive

Compound: Cc1c(-c2ccccc2)cc(O)c2nc3ccccc3n12
Assigned Label: inactive

Compound: COC(=O)C1C(=O)O[C@@H](c2ccc(OC)cc2)C1C(=O)OC (stereo partly drawn)
Assigned Label: inactive

Compound: O=C(CCc1nnc2s/c(=C\c3ccccc3[N+](=O)[O-])c(=O)n12)Nc1cc(Cl)c(Cl)cc1Cl
Assigned Label: inactive

====

Tested on: SF-268
Experiment Summary: NCI tumour cell line growth inhibition, 48 h
Calls of active or inactive are those of the source. Rule as the data show it: active = GI50 up to about 1.1 µM and inactive = higher.
Outcome codes: active, inactive

Molecule: Nc1cccc(OCc2nc(N)nc(N)c2-c2ccc(Cl)cc2)c1
Assigned Label: inactive
//
Molecule: Cc1nn(C(=O)c2ccccc2O)c2c1C(c1ccc(O)cc1O)SC(=N)N2 (configuration not stated)
Assigned Label: inactive
//
Molecule: O=c1cc(N=P(c2ccccc2)(c2ccccc2)c2ccccc2)n(-c2ccccc2)c(=O)n1-c1ccccc1
Assigned Label: inactive
//
Molecule: Cc1ccccc1N(CCC#N)C1=NN(C(=O)CC(=O)Nc2ccc(Cl)cc2)C(c2ccccc2)C1 (configuration not stated)
Assigned Label: inactive
//
Molecule: COC(=O)C1C(=O)O[C@@H](c2ccc(OC)cc2)C1C(=O)OC (some centres not stated)
Assigned Label: inactive
//
Molecule: COc1ccc2c(c1)[n+]([O-])c(-c1ccc([N+](=O)[O-])cc1)c(N)[n+]2[O-]
Assigned Label: inactive
//
Molecule: O=C1NC2(CCCCC2)C2=C1CCCCC2
Assigned Label: inactive
//
Molecule: O=C1/C(=C/c2cccs2)NC(=S)N1CN1CCCCC1
Assigned Label: inactive
//
Molecule: CC[C@H]1CN(C)[C@H]2Cc3c([nH]c4ccccc34)C(=O)C[C@H]1C2C(=O)OC (some centres not stated)
Assigned Label: inactive
//
Molecule: COc1ccc(Nc2nc3cc(C(F)(F)F)ccc3nc2C(=O)O)cc1OC
Assigned Label: inactive
//
Molecule: CC1(C)O[C@@H]([C@H](O)CO)[C@H](O)[C@@H](C2SCCCS2)O1
Assigned Label: inactive
//
Molecule: Nc1nc(O)c2ncn(C3C=CC(CO)C3)c2n1 (configuration not stated)
Assigned Label: inactive
//
Molecule: CC(C)NC(=O)O/N=C1\CCC2[C@@H]3CC=C4C[C@@H](OC(=O)NC(C)C)CC[C@]4(C)C3CC[C@]12C (some centres not stated)
Assigned Label: inactive
//
Molecule: COC[C@@H](/N=C/N1CCc2cc(OC)c(OC)cc2[C@@H]1C)C(C)(C)C
Assigned Label: inactive
//
Molecule: Nc1ncnc2c1ncn2[C@@H]1O[C@H](COP(=O)(O)OP(=O)(O)OC[C@H]2O[C@@H](OCCCO)[C@H](O)[C@@H]2O)[C@@H](O)[C@H]1O
Assigned Label: inactive
//
Molecule: NC1(C(=O)O)CCCC1 [CYCLOLEUCINE]
Assigned Label: inactive
//
Molecule: CCC(=O)O[C@H]1CC[C@H]2[C@@H]3CCC4=C/C(=N/OC(=O)c5cccc6c(=O)c7ccccc7[nH]c56)CC[C@]4(C)[C@H]3CC[C@]12C
Assigned Label: inactive
//
Molecule: C=CC1=CC(C)C[C@]1(O)C(=O)OC (some centres not stated)
Assigned Label: active
//
Molecule: CN(C)Cc1cc(C(=O)/C=C/c2ccc(Cl)c(Cl)c2)cc(CN(C)C)c1O
Assigned Label: inactive
//
Molecule: CCOC(=O)NC(Nc1ccc(F)cc1)(C(=O)OCC)C(F)(F)F (configuration not stated)
Assigned Label: inactive
//
Molecule: Nc1ccc2c(c1)C1Oc3ccccc3CC1CO2 (configuration not stated)
Assigned Label: inactive
//
Molecule: CC[C@@H]1CC[C@@H]2[C@H](CC[C@]3(C)[C@@H](OC(C)=O)CC[C@@H]23)[C@H]1C(=O)OC
Assigned Label: inactive
//
Molecule: Cc1cc2nc3c(C#N)c4c(c(-c5ccc(Cl)cc5)n3c2cc1C)CCC4
Assigned Label: inactive
//
Molecule: Cc1cccc(C)c1N1C(=O)C2c3[nH]c4ccccc4c3C3CCC(C(C)(C)C)CC3C2C1=O (configuration not stated)
Assigned Label: inactive
//
Molecule: C=C(C)C1CC(=O)C(C)=C(O)C1 (configuration not stated)
Assigned Label: inactive
//
Molecule: CC(=O)C(C)(C)CCC(C)(C)C(C)=O
Assigned Label: inactive
//
Molecule: CCC(c1ccc(OC)cc1)C1NC(=S)NC1=O (configuration not stated)
Assigned Label: inactive

Reference source for all entries: ChEMBL document CHEMBL1201862
